Could you please report measured IC50 for the items listed next?
biological target: T1, recombinant human c-Met extracellular domain (R&D systems) (human, UniProt P08581 25-932); experiment: competition ELISA on coated recombinant c-Met extracellular domain; blocked ligand Europium-conjugated HGF; column headed EC50 on the sheet, called IC50 in paragraph 270; upper panel
T1 construct: extracellular domain; Bought reagent; also called coated extracellular domain of c-Met; recombinant c-Met
T1 sequence (P08581 25-932): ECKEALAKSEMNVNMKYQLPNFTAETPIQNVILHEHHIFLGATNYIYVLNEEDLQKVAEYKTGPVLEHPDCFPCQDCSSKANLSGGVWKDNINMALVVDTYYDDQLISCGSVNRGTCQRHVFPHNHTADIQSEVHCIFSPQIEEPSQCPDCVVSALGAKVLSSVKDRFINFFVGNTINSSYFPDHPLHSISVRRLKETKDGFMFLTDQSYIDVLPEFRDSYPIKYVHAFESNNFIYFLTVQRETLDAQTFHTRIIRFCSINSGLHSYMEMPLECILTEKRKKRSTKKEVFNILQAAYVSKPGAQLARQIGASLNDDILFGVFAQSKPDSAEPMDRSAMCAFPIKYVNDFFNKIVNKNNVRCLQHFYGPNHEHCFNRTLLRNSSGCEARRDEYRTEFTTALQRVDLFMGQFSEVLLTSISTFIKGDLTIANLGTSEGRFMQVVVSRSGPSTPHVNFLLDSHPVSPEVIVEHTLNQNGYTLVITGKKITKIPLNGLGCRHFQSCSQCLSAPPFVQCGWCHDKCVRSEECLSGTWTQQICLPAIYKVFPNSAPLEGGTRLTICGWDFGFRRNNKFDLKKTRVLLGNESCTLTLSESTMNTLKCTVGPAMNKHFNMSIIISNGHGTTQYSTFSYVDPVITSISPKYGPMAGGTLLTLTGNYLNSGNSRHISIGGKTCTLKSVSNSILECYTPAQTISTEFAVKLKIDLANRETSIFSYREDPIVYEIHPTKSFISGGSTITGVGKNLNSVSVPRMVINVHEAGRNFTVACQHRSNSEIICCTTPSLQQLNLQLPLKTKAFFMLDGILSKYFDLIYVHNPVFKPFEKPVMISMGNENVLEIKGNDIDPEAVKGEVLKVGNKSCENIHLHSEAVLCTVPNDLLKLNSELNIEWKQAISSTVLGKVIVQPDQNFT
One number for each entry, in µg/mL.

Example binders with recorded IC50:
binder	IC50 (µg/mL)
anti-c-Met HuMab 035 (IgG1) (antibody, V domains shown, also called P1016-035; TH1016-035-D09) VH: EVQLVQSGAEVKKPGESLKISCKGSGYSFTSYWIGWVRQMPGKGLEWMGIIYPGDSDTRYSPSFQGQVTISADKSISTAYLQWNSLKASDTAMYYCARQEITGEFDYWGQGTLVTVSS VL: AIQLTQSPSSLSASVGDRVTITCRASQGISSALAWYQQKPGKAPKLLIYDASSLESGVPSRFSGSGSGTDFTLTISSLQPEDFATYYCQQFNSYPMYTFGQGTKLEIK	0.0348
anti-c-Met HuMab 005 (IgG1) (antibody, V domains shown, also called TH1016-005; PC1016-005) VH: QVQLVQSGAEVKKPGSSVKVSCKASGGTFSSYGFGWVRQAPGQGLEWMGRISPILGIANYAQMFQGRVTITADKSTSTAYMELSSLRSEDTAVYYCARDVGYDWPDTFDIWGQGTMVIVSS VL: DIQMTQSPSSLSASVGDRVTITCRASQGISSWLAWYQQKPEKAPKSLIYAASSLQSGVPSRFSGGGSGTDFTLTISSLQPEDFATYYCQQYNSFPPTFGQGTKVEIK	0.0362

So, anti-c-Met HuMab 008 (IgG1) (antibody, V domains shown, also called TH1016-008; PC1016-008) VH: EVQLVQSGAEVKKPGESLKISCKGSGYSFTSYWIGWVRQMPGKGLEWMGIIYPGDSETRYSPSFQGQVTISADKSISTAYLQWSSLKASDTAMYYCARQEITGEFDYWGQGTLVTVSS VL: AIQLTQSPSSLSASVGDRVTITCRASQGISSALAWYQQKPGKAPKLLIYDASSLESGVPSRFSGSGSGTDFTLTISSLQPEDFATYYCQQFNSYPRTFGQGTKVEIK ? Its IC50 was 0.00788
